# system_under_test: T1, human gpr-54 receptor (human, UniProt Q969F8 1-398)
# T1 construct: whole, on cells; CHO cells stably expressing the human gpr-54 receptor came from Prof; G. Vassart; also called kisspeptin receptor; AXOR12
# method_notes: whole-cell competition binding against 125I-kisspeptin, CHO cells stably transfected with hGPR54 (CPM) [188]
property: IC50 (nM)

binder="Ac-FGLRF-NH2 (kisspeptin-10 analogue; also called Peptide 188; acFGLRF) [188]" value_observed=143
